Test system: RPMI-8226 leukemia
Test: NCI-60 one-dose screen, 48 h (100 = growth as untreated, 0 = no growth, -100 = all killed)
Conditions: 10 µM unless noted
Procedure: Growth inhibition of the RPMI-8226 human tumor cell line is measured as a screen for anti-cancer activity. Cells are grown in 96 well plates and exposed to the test compound for 48 hours. Compounds are tested at a single concentration, which is 10^-5 M for most compounds. The reported endpoint is percent growth (GI% or GIPRCNT), where numbers from 0 - 100% represent growth inhibition, and numbers from -100% - 0 represent cell death. For example, a value of 40 represents 60% growth inhibition. […]
About 83,000 compounds went through this panel and 20% of them were active in at least one assay; those are over-represented in the sample as a whole.
propertyName: growth (%)
Please respond with the number in % and leave the unit unwritten.

compound | outputUnit | growth
CS(=O)(=O)CCN1CC2CCCC(C2)C1 | % | 101
COC(=O)CC12CC(NC(=O)c3csc([C@@H](C[C@H](C(C)C)N(C)C(=O)[C@@H](NC(=O)[C@H]4CCCCN4C)C(C)C)OC(C)=O)n3)(C1)C2 | % | 24.4
CCC1(C)CC(CCNCc2ccccc2O)(c2ccc(C)cc2)CCO1 (centres undefined) | % | 98.2

input: Any idea what growth was measured for `C[N+]12CN3CN(CN(C3)C1)C2` ?
output: 88

---

Tested on: KM12 colon
Test: NCI-60 one-dose screen, 48 h (100 = growth as untreated, 0 = no growth, -100 = all killed)
Settings: 10 µM unless noted
Procedure: Growth inhibition of the KM12 human tumor cell line is measured as a screen for anti-cancer activity. Cells are grown in 96 well plates and exposed to the test compound for 48 hours. Compounds are tested at a single concentration, which is 10^-5 M for most compounds. The reported endpoint is percent growth (GI% or GIPRCNT), where numbers from 0 - 100% represent growth inhibition, and numbers from -100% - 0 represent cell death. For example, a value of 40 represents 60% growth inhibition. […]
Compounds without any hit were thinned out: in the full panel of roughly 83,000, 20% have a hit. Active and inactive are the calls of the source. Rule for the calls: active = growth percent below 10; inactive = the rest.
Parameter growth: see the listing below.

Some solved entries appear below for comparison.
compound | result
CC1=C(CCCOC(=O)CN)C2=C(C)C3(CC3)[C@@](C)(O)C(=O)C2=C1 | 100% (inactive)
CC(=O)OC1CCC2C3CCC4=C/C(=N/OC(=O)c5ccc(N(CCCl)CCCl)cc5)CCC4(C)C3CC(C)C12 (stereo unspecified) | 73.6% (inactive)
C#C[C@]1(OC(=O)CCCCCC)CC[C@H]2[C@@H]3CCC4=CC(=O)CC[C@@H]4[C@H]3CC[C@@]21C | 29.2% (inactive)
COc1cc([C@@H]2c3cc4c(cc3[C@H](OC(C)=O)[C@H]3COC(=O)[C@@H]23)OCO4)cc(OC)c1OC | -37.1% (active)
C[N+]12CN3CN(CN(C3)C1)C2 | 111% (inactive)

input: Any idea what growth was measured for `Cc1cc(N(CCCl)CCCl)ccc1/C=N\NC(=O)c1ccncc1` ?
output: 95.6% (inactive)

---

system: NCI-H322M lung; assay: NCI-60 one-dose screen, 48 h; details: 10 µM unless noted
The panel holds about 83,000 compounds, 20% with a hit somewhere; the sample as a whole holds those more often. Activity calls are given as the source filed them. Rule for the calls: active = growth percent below 10; inactive = the rest.
Write down one outcome, taken from active, inactive

compound | targetEntity | assignedLabel
O=C(Nc1ccc(O)cc1)C(Cl)(Cl)Cl | NCI-H322M lung | inactive

Shift focus to the following entry.
input: Name the outcome recorded for `CC[C@H](C)[C@H](NC(=O)C12CC(NC(C)=O)(C1)C2)C(=O)N(C)[C@H](C[C@@H](OC(C)=O)c1nc(C(=O)N[C@@H](Cc2ccccc2)C[C@H](C)C(=O)OC)cs1)C(C)C` in the assay.
output: inactive
